# 5-HT1A /D2 Selectivity values compiled below
Molecular target: 5-HT1A receptors (Rattus norvegicus, UniProt P19327)
Sequence (P19327 whole entry): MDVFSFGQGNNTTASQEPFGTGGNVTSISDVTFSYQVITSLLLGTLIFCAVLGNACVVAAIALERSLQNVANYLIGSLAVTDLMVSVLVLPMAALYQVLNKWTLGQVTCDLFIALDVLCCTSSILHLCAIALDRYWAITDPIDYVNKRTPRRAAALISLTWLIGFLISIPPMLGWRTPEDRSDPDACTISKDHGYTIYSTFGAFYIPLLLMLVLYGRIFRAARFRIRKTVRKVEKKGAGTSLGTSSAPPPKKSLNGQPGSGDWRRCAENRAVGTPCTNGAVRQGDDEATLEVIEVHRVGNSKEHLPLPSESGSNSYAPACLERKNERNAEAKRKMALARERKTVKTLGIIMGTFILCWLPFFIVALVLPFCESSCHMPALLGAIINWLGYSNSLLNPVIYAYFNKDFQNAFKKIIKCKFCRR
Test: In vitro affinity for the 5-HT1A receptors by displacement of (^3 H)8-OH-DPAT
Type: binding
Parameters: rat cerebral cortices are used; from tissue; host or cells: rat cerebral cortex
Details: ratio of affinity constants (Ki) D2 /(Ki) 5-HT1A
Description: 1-Measurement of the affinity of the compounds of the invention for the 5-HT1A receptors The study of binding to the 5-HT1A receptor was carried out as described by Sleight and Peroutka (Naunyn-Schmiedeberg's Arch. Pharmaco. 1991, 343, 106-16). For these experiments, rat cerebral cortices are used. […] Nonspecific binding is defined using 10 mmol of 5-HT. […] The radioactivity collected on the filter is analyzed by liquid scintillation by adding 4 ml of scintillation fluid (Emulsifier Safe, Packard). […]

>>> test_value("O=C(c1ccc(F)c(Cl)c1)N1CCC(F)(CNCc2cccc(-c3cc[nH]n3)n2)CC1")
16594

Could you tell me which 5-HT1A /D2 Selectivity is on file for O=C(c1ccc(F)c(Cl)c1)N1CCC(F)(CNCc2cccc(-c3ccco3)n2)CC1 ?
7942

Could you tell me which 5-HT1A /D2 Selectivity is on file for CNc1nc(CNCC2(F)CCN(C(=O)c3ccc(F)c(Cl)c3)CC2)ccc1C ?
16982
